- ASSAY REMARKS: pH of 1% (w/v) aqueous solution of the salt
- Type: physicochemical
- PARTICULARS: 1% (w/v) in water
Structures can show the parent of a compound that is named as a salt.
Assignment: determine reported pH value of a 1% (w/v) aqueous solution for the given compounds.
One number for each entry.

Some compounds with recorded pH value of a 1% (w/v) aqueous solution:
>  <COMPOUND>
C[C@H](CCC(=O)O)[C@H]1CC[C@H]2[C@@H]3[C@@H](O)C[C@@H]4C[C@H](O)CC[C@]4(C)[C@H]3CC[C@]12C [N-methyl-D-glucamine salt of the ursodeoxycholic acid]

>  <QUANTITATIVE RESULT>
8.06

$$$$
>  <COMPOUND>
C[C@H](CCC(=O)O)[C@H]1CC[C@H]2[C@@H]3[C@@H](O)C[C@@H]4C[C@H](O)CC[C@]4(C)[C@H]3CC[C@]12C [sodium salt of the ursodeoxycholic acid]

>  <QUANTITATIVE RESULT>
7.80

$$$$

Please supply pH value of a 1% (w/v) aqueous solution for each of the following items, keeping them in order.
1. C[C@H](CCC(=O)O)[C@H]1CC[C@H]2[C@@H]3[C@@H](O)C[C@@H]4C[C@H](O)CC[C@]4(C)[C@H]3CC[C@]12C [Example 2]
2. C[C@H](CCC(=O)O)[C@H]1CC[C@H]2[C@@H]3[C@@H](O)C[C@@H]4C[C@H](O)CC[C@]4(C)[C@H]3CC[C@]12C [potassium salt of the ursodeoxycholic acid]
3. C[C@H](CCC(=O)O)[C@H]1CC[C@H]2[C@@H]3[C@@H](O)C[C@@H]4C[C@H](O)CC[C@]4(C)[C@H]3CC[C@]12C [Example 3, CHOLINE SALT OF THE URSODEOXYCHOLIC ACID]
4. C[C@H](CCC(=O)O)[C@H]1CC[C@H]2[C@@H]3[C@@H](O)C[C@@H]4C[C@H](O)CC[C@]4(C)[C@H]3CC[C@]12C [Example 1, LITHIUM SALT OF THE URSODEOXYCHOLIC ACID]
5. C[C@H](CCC(=O)O)[C@H]1CC[C@H]2[C@@H]3[C@@H](O)C[C@@H]4C[C@H](O)CC[C@]4(C)[C@H]3CC[C@]12C [L-arginine salt of the ursodeoxycholic acid]

7.90
7.90
7.40
8.13
7.75

// provenance: patent US5302398A
